# tested system: Jak2 (UniProt O60674)
# Sequence (O60674 whole entry, looked up): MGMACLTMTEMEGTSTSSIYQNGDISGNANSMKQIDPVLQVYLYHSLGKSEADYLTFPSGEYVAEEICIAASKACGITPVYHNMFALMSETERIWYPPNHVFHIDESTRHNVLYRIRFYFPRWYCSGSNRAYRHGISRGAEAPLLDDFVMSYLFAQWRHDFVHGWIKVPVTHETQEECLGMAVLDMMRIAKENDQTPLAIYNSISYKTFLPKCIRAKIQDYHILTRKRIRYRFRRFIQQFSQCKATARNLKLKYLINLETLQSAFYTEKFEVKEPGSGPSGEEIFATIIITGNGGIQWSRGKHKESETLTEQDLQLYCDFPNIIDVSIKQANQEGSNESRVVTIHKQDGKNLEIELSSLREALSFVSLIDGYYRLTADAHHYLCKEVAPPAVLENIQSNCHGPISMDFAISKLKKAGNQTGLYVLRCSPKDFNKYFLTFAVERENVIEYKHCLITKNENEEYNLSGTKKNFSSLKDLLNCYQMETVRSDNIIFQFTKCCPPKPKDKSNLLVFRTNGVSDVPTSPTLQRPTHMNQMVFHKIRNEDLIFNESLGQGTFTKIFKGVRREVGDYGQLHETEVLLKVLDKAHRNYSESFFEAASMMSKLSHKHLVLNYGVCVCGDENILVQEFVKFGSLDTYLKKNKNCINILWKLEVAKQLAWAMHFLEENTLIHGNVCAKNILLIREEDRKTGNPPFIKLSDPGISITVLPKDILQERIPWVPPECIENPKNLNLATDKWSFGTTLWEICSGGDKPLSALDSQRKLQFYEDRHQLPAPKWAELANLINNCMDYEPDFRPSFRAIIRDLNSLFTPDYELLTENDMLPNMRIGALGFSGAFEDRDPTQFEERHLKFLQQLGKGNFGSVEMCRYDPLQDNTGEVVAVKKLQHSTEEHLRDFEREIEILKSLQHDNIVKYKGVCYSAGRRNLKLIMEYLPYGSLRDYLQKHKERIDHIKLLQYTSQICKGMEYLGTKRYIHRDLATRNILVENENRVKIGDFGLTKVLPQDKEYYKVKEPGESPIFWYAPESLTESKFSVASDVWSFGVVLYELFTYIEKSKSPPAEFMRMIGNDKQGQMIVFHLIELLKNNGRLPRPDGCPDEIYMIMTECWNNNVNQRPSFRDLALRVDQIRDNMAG
# assay remarks: phosphorylation enrichment, bacterial display (enrichment ratio); higher = better substrate or ligand; peptides without Tyr show the background
Each entry gets condition not met if its phosphorylation enrichment stays under 0.7, and condition met if its phosphorylation enrichment is 0.7 or above.

VFPATYHPDHW [EFCAB12_Y544_YF] = condition not met
SLMNQYVNKEF [RAB7A_Y28_K32E] = condition not met
PGAPAYCVLME [MYO5A_Y1245_R1246C] = condition met
TINPIYEHVGY [CHN1_Y143] = condition not met
GSESDYIVMPN [SCARB1_Y133] = condition met

Check if phosphorylation enrichment >= 0.7 (inclusive). Item: DFLSSYSAVKQ [OAT_Y85_N89K]
condition not met

Could you verify whether the entry LKALHYMVQTS [SACS_Y3367] shows phosphorylation enrichment of no less than 0.7?
condition not met

Test whether the sequence MGSFNYLGFAW [SPTLC2_Y178_R183W_YF] records phosphorylation enrichment of 0.7 or higher.
condition met

Does QLPRGYISIPV [BAG3_Y205] have a reported phosphorylation enrichment of at least 0.7?
condition met

====

Entries and their phosphorylation enrichment values follow.
# tested system: Jak2 (UniProt O60674)
# assay remarks: phosphorylation enrichment, bacterial display (enrichment ratio); higher = better substrate or ligand; peptides without Tyr show the background
# respond with the number and nothing more

EPTPGYEVSQR [TSC2_Y1788_G1791S] = 0.706

// Input: RRGTRYMFSRP [RPL21_Y13] . Output its phosphorylation enrichment only.
0.625

Look up and state reported phosphorylation enrichment for TISPYYCQSLF [CRYAA_Y48_R49C]
1.26

Please give the documented phosphorylation enrichment of VNFDYYTVNLG [GFPT1_Y367_D366Y]
9.69

For IMNLLYHVVGW [GBA_Y412_T408M] , write its phosphorylation enrichment.
2.43

Dear colleague, please send me the reported phosphorylation enrichment for TFMKQYPKVFL [CNBD1_Y70] when you can.
0.591

Give the reported value of phosphorylation enrichment for this record: GHLFAYDWIRI [BEST1_Y227_S231R_YF]
0.867

Give the measured phosphorylation enrichment for EDSEYYKAFEE [CASQ2_Y179]
1.11

Answer with reported phosphorylation enrichment of ESDYTYSSSYE [SRPK2_Y427]
0.852

Provide one value: measured phosphorylation enrichment of DRLASYLDKLR [KRT12_Y139_V143L]
0.713

Return phosphorylation enrichment for the following sequence: LNWIFYKDQTG [RS1_Y166_YF]
1.29

Look up phosphorylation enrichment of LSRDVYEEDSY [RET_Y900] and report it.
1.55

For the sequence FHKALYTVRTF [PDE6C_Y266_S270T_YF] , give its measured phosphorylation enrichment value.
0.907

====

# tested system: FGFR3 (UniProt P22607)
# Sequence (P22607 whole entry, looked up): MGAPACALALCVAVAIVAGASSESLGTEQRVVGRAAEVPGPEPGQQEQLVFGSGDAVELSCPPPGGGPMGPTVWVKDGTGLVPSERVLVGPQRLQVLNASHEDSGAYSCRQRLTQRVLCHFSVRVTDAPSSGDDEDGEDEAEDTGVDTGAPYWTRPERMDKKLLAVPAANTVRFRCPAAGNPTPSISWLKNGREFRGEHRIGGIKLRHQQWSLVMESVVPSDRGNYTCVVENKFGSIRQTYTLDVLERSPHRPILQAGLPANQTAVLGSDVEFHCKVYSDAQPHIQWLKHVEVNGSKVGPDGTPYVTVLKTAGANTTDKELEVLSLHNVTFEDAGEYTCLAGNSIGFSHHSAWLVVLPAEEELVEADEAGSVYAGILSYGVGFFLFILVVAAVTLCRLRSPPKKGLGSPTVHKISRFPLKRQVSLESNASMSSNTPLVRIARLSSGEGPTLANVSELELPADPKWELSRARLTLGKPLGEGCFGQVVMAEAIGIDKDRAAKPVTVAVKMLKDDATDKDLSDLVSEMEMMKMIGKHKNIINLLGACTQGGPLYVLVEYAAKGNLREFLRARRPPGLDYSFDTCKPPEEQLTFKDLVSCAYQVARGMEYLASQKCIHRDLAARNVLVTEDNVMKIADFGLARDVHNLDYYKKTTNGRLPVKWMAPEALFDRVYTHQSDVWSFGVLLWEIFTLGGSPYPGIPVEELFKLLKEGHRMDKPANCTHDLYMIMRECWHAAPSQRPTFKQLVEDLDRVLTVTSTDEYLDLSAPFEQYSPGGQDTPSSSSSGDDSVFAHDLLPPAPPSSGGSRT
# assay remarks: phosphorylation enrichment, bacterial display (enrichment ratio); higher = better substrate or ligand; peptides without Tyr show the background
List of phosphorylation enrichment values.

SVVVSYEPPEV [TP53_Y220_P219S] = 0.594
CEQELYSQLVF [WAS_Y102_W97C_YF] = 1.79

Okay, next one:
Specify measured phosphorylation enrichment for ALTDNYMYVVI [HAGH_Y61_L64V] .
9.14

====

# tested system: Grb2 SH2 (UniProt P62993)
# Sequence (P62993 whole entry, looked up): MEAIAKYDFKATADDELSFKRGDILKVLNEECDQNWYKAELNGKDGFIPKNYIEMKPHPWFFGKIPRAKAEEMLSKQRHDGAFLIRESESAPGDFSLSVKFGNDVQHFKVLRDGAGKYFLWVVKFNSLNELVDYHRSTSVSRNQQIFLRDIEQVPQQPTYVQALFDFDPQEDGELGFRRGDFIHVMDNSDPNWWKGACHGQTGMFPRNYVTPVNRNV
# assay remarks: SH2 binding enrichment of the phosphorylated peptide, bacterial display (enrichment ratio); higher = better substrate or ligand; peptides without Tyr show the background
test readout: SH2 binding enrichment
Give your answer as a number; write no unit.

FSTPPYLLEAA [BRIP1_Y921_S919P_YF] = 0.952
DFLSSYSAVKQ [OAT_Y85_N89K] = 1.05
IVKAYYVRARA [AIPL1_Y268] = 0.976

Continue with the next sequence.
Assign SH2 binding enrichment to the following record: SIIKDYFHRGA [GATM_Y203]
0.87

====

phosphorylation enrichment values for the sequences below.
# tested system: MERTK (UniProt Q12866)
# Sequence (Q12866 whole entry, looked up): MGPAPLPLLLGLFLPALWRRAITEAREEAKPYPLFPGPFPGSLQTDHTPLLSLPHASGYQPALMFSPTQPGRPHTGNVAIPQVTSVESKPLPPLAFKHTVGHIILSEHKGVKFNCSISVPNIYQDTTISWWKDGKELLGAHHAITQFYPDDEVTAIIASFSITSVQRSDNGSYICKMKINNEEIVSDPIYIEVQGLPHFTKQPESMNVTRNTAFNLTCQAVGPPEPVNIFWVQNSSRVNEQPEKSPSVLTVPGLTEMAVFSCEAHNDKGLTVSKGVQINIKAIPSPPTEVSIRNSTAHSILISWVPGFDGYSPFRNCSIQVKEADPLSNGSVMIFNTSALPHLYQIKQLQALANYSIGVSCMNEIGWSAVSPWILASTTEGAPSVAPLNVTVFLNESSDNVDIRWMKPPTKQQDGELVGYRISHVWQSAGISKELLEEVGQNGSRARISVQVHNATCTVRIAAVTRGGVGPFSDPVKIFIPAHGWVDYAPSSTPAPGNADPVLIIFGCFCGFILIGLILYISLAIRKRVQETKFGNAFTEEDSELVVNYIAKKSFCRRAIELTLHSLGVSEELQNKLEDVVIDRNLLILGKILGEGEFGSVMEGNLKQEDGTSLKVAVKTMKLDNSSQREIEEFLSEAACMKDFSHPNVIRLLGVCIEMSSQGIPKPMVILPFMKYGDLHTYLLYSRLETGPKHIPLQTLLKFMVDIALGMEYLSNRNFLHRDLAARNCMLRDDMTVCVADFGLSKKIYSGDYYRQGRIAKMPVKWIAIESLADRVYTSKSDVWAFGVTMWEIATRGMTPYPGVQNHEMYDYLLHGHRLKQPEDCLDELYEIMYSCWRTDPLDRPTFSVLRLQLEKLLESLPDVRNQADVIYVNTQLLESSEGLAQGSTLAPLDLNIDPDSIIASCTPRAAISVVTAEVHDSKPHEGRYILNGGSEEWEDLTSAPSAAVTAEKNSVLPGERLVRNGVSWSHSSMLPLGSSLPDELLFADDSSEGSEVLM
# assay remarks: phosphorylation enrichment, bacterial display (enrichment ratio); higher = better substrate or ligand; peptides without Tyr show the background
Give the figure only, with no unit attached.

Here are 3 sequences together with their reported answers.
PGAPAYCVLME [MYO5A_Y1245_R1246C] = 4.03
ASNNPYFRDQA [RPGRIP1_Y846] = 0.416
EKKKYYDAKIE [CASP5_Y104_T106A] = 0.473

Now look at this one.
Write down phosphorylation enrichment measured for item YRQLQYCPSVE [CTNND2_Y508]
0.483

====

# tested system: MERTK (UniProt Q12866)
# assay remarks: phosphorylation enrichment, bacterial display (enrichment ratio); higher = better substrate or ligand; peptides without Tyr show the background
Note to self: values exactly at 0.5 are yes (1). So phosphorylation enrichment at or above 0.5 is yes (1), below is no (0).

Look over these answered cases.
ISKQEYDEAGP [ACTC1_Y364] = yes (1)
INQGPYENHSV [ATP6V1B1_Y462_R465H] = yes (1)
DGYIDYAEFAK [MCFD2_Y138] = no (0)
VLTSKYRGGGG [HBA1_Y141] = yes (1)
NFYEYYVDDPP [GCHFR_Y48] = yes (1)

Query sequence follows.
Decide: phosphorylation enrichment of TAGEPYHDIRF [BAP1_Y223] >= 0.5?
no (0)

====

# tested system: Jak2 (UniProt O60674)
# assay remarks: phosphorylation enrichment, bacterial display (enrichment ratio); higher = better substrate or ligand; peptides without Tyr show the background
Mark NOT MET for phosphorylation enrichment values under 0.6, and MET for everything at or above.

Example results:
LTRDIYKNDFF [ROS1_Y2110_A2106T_YF] = MET
VNKIFYPDFIV [LIG3_Y768_YF] = MET
SFPPTYRYERG [INPPL1_Y661] = NOT MET
RKLASYRSCLL [DHX37_Y1080] = MET

Record SAVTGYRVNVI [FN1_Y937_D940N] ; criterion: phosphorylation enrichment no lower than 0.6. Met?
MET

Does the reported phosphorylation enrichment for DLAGRYYALRS [CKB_Y173_K177R] fall at or above the 0.6 mark?
MET

Kindly determine if phosphorylation enrichment recorded for AIIGIYNLRDD [CDH23_Y2949_I2950N] is above or exactly 0.6.
MET

Does phosphorylation enrichment meet or surpass 0.6 for LTTEAYEWEPR [ELMOD3_Y61] ?
MET

Please indicate if the recorded phosphorylation enrichment for HKANEYFPVVI [ADAMTS18_Y764_L769I_YF] meets or exceeds 0.6.
MET

Check the entry KVNKIYFPDFI [LIG3_Y767_YF] : does phosphorylation enrichment equal or exceed 0.6?
MET

Answer whether phosphorylation enrichment of TVFSDYLHPQY [CCPG1_Y569] is greater than or equal to 0.6.
MET

Confirm if phosphorylation enrichment reported for the sequence HKLSFNEFDFE [BTK_Y40_Y40N_YF] is 0.6 or above.
MET

Please check the record IAAEFYDNLPH [DEGS1_Y284_YF] and state if its phosphorylation enrichment is at or above 0.6.
NOT MET

Please tell me: is the sequence YEPDAYDDLDQ [ELP5_Y302] at or over 0.6 in terms of phosphorylation enrichment?
MET

Is it the case that VPLLEYYRDIF [CDAN1_Y712] has phosphorylation enrichment reaching or exceeding 0.6?
MET

Decide: is the reported value of phosphorylation enrichment for ETEMLYGSAPR [PRC1_Y464] equal to or greater than 0.6?
NOT MET

====

Reported phosphorylation enrichment values for a set of sequences
# tested system: Hck (UniProt P08631)
# Sequence (P08631 whole entry, looked up): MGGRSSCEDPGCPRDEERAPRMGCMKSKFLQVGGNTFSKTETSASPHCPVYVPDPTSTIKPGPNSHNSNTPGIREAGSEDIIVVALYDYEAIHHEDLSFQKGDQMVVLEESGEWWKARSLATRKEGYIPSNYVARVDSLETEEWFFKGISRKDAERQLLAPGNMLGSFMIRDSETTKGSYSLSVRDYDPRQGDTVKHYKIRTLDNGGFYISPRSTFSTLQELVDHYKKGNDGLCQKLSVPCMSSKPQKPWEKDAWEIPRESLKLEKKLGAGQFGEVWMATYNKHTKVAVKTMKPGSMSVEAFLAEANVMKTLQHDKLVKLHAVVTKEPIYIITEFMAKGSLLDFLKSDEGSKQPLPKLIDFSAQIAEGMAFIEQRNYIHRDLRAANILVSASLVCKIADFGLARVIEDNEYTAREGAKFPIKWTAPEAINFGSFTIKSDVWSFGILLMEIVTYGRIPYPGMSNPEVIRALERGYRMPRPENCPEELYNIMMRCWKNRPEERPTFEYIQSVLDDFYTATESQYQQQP
# assay remarks: phosphorylation enrichment, bacterial display (enrichment ratio); higher = better substrate or ligand; peptides without Tyr show the background
Answer with a bare number; do not write a unit.

Return value of phosphorylation enrichment for input VRVQLYDPDFM [CYP4A22_Y100_Y104F] , no commentary.
0.561

Provide only the value of recorded phosphorylation enrichment for FEREQYADRAR [RBM4_Y355_YF]
0.426

Answer with the recorded phosphorylation enrichment of RRGTRYMFSRP [RPL21_Y13] only.
0.853

====

# tested system: FGFR1 (UniProt P11362)
# Sequence (P11362 whole entry, looked up): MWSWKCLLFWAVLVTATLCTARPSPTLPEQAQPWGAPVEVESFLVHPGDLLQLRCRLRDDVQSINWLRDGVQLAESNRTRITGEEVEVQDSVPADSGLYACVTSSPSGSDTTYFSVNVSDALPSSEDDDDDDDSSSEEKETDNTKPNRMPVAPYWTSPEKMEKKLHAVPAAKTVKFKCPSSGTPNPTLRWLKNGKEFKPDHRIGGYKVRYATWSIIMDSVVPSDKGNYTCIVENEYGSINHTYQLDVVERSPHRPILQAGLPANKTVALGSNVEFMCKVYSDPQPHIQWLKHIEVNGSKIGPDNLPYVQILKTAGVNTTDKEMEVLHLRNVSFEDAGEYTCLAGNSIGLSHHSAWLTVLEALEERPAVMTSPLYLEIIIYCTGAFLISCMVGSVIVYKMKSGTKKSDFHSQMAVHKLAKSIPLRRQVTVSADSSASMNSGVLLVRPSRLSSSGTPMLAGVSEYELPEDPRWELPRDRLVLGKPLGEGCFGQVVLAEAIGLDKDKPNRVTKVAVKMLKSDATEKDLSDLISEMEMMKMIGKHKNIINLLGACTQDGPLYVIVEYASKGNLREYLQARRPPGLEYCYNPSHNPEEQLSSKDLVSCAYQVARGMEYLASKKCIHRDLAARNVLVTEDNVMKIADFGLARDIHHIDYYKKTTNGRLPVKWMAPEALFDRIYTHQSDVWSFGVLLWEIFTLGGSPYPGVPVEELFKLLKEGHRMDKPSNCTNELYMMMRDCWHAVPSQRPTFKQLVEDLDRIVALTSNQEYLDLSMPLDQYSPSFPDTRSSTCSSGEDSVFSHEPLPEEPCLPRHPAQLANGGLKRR
# assay remarks: phosphorylation enrichment, bacterial display (enrichment ratio); higher = better substrate or ligand; peptides without Tyr show the background
test readout: phosphorylation enrichment
Please state the value as a number alone, without comment.

LVMFIYVIFGM [SCN1A_Y1684_A1685V] = 0.583
ARLEFYENEKK [IRS1_Y47_YF] = 0.58
MGGSVYFSFPD [HIKESHI_Y55_YF] = 3.19
CSEEMYRLMLQ [RET_Y981] = 0.921
GQECEYPPTQD [METAP2_Y137] = 0.584

Give measured phosphorylation enrichment for EHFSFYGMKAV [SLC15A2_Y61_R57H_YF] (FGFR1 (UniProt P11362)).
0.441

Given VREIRYQGGNR [VWF_Y1570] , report its phosphorylation enrichment on FGFR1 (UniProt P11362).
0.378

State, for FGFR1 (UniProt P11362), measured phosphorylation enrichment of the sequence listed here: LYIDSYEKDVA [PGM1_Y521]
0.895

Return reported phosphorylation enrichment for target or system FGFR1 (UniProt P11362), item SISLRYEGRVF [ABL1_Y167_YF] .
0.524

Report value: phosphorylation enrichment, system: FGFR1 (UniProt P11362), sequence: AIIGIYNLRDD [CDH23_Y2949_I2950N]
0.478

Provide measured phosphorylation enrichment on FGFR1 (UniProt P11362) for DLAGRYYALKS [CKB_Y173] please.
1.04

Provide phosphorylation enrichment, recorded with FGFR1 (UniProt P11362), of LEVPLYKNGVK [CPS1_Y1069_A1065E]
0.944

Give phosphorylation enrichment for VDGSLYETHPQ [HK1_Y417_K418E] tested on FGFR1 (UniProt P11362).
0.441
